Source: ChEMBL document CHEMBL1152563

Target: Urotensin-2 receptor (Homo sapiens) (UniProt Q9UKP6)
Sequence (whole entry): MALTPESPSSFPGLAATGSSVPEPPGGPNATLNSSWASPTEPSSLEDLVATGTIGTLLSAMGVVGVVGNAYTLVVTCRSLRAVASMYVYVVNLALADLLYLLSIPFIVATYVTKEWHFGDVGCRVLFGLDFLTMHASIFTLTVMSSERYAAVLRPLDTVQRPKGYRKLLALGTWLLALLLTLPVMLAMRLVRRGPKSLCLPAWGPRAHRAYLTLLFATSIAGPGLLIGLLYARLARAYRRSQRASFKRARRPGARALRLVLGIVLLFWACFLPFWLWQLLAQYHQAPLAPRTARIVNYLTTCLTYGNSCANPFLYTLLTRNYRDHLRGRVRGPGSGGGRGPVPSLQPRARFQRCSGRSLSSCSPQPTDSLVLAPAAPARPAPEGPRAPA
Assay: Agonist activity at human GPR14 expressed in HEK293 cells by calcium mobilization assay relative to urotensin 2
Type: functional, cell-based
Peptide text beside a SMILES is read from it.
This listing pairs molecules with measured Emax.
Numbers only; they are read as %.

Answered examples (7):
[[record]]
molecule = "NCCCC[C@@H]1NC(=O)[C@H](Cc2c[nH]c3ccccc23)NC(=O)[C@H](CO)NC(=O)CNC(=O)[C@@H]2CCCN2C(=O)[C@H](Cc2ccc(O)cc2)NC1=O (cyclo(GSWKYP))"
observed_property = "Emax"
unit_of_measurement = "%"
reported_result = 108

[[record]]
molecule = "NCCCC[C@@H]1NC(=O)[C@H](Cc2c[nH]c3ccccc23)NC(=O)[C@H](CO)NC(=O)CNC(=O)[C@@H]2CCCN2C(=O)[C@H](Cc2c[nH]c3ccccc23)NC1=O (cyclo(GSWKWP))"
observed_property = "Emax"
unit_of_measurement = "%"
reported_result = 100

[[record]]
molecule = "NCCCC[C@@H]1NC(=O)[C@H](Cc2c[nH]c3ccccc23)NC(=O)[C@H](Cc2ccccc2)NC(=O)CNC(=O)[C@@H]2CCCN2C(=O)[C@H](Cc2c[nH]c3ccccc23)NC1=O (cyclo(FWKWPG))"
observed_property = "Emax"
unit_of_measurement = "%"
reported_result = 92

[[record]]
molecule = "NCCCC[C@@H]1NC(=O)[C@H](Cc2c[nH]c3ccccc23)NC(=O)[C@H](CO)NC(=O)CNC(=O)[C@@H]2CCCN2C(=O)[C@H](Cc2ccccc2)NC1=O (cyclo(FPGSWK))"
observed_property = "Emax"
unit_of_measurement = "%"
reported_result = 96

[[record]]
molecule = "NCCCC[C@@H]1NC(=O)[C@H](Cc2c[nH]c3ccccc23)NC(=O)[C@H](Cc2ccc(O)cc2)NC(=O)CNC(=O)[C@@H]2CCCN2C(=O)[C@H](Cc2ccccc2)NC1=O (cyclo(FPGYWK))"
observed_property = "Emax"
unit_of_measurement = "%"
reported_result = 102

[[record]]
molecule = "NCCCC[C@@H]1NC(=O)[C@H](Cc2c[nH]c3ccccc23)NC(=O)[C@H](Cc2ccc(O)cc2)NC(=O)CNC(=O)[C@@H]2CCCN2C(=O)[C@H](Cc2ccc(O)cc2)NC1=O (cyclo(GYWKYP))"
observed_property = "Emax"
unit_of_measurement = "%"
reported_result = 86

[[record]]
molecule = "NCCCC[C@@H]1NC(=O)[C@H](Cc2c[nH]c3ccccc23)NC(=O)[C@H](Cc2ccccc2)NC(=O)CNC(=O)[C@@H]2CCCN2C(=O)[C@H](Cc2ccccc2)NC1=O (cyclo(FPGFWK))"
observed_property = "Emax"
unit_of_measurement = "%"
reported_result = 101


Consider the additional molecule presented here.
Entry NCCCC[C@@H]1NC(=O)[C@H](Cc2c[nH]c3ccccc23)NC(=O)[C@H](Cc2ccccc2)NC(=O)CNC(=O)[C@@H]2CCCN2C(=O)[C@H](Cc2ccc(O)cc2)NC1=O (cyclo(FWKYPG)) has what Emax?
98
